experiment: Cmax in human at 10 mg, po; assay type: ADME, organism-based; set-up: dose 10 mg, route oral; conditions: in vivo
property measured: Cmax (ng/mL)
The figure you give is taken to be in ng/mL; do not add the unit.

[in] Write down Cmax measured for item CC(C)(O)c1ccccc1CC[C@@H](SCC1(CC(=O)[O-])CC1)c1cccc(/C=C/c2ccc3ccc(Cl)cc3n2)c1.[Na+] [MONTELUKAST SODIUM]
[out] 500

====

target: Cytochrome P450 2C9 (Homo sapiens, UniProt P11712); assay: Inhibition of recombinant human CYP2C9 expressed in microsomes isolated from baculovirus infected insect cell after 10 mins
Sequence (P11712 whole entry): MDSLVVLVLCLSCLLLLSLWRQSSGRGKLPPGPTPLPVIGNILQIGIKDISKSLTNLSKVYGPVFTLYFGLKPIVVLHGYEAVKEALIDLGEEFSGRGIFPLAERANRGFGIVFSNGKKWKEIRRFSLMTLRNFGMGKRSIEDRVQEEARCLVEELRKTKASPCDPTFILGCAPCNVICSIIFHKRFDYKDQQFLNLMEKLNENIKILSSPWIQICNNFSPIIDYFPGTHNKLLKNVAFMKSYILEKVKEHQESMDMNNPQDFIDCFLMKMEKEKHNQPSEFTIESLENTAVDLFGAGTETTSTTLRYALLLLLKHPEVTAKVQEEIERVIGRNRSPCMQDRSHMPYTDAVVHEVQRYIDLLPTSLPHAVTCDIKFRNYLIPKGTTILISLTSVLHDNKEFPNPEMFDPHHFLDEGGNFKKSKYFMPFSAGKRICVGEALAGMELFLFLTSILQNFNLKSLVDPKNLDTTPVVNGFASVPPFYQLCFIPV
property measured: pKi
Recall that pKi is obtained by taking minus log10 of the concentration measured in molar.

[in] Write down pKi measured for item CC(C)(O)c1ccccc1CC[C@@H](SCC1(CC(=O)[O-])CC1)c1cccc(/C=C/c2ccc3ccc(Cl)cc3n2)c1.[Na+] [MONTELUKAST SODIUM]
[out] 5.13
